Molecular target: Prostaglandin E synthase (Homo sapiens)
Sequence (O14684 whole entry): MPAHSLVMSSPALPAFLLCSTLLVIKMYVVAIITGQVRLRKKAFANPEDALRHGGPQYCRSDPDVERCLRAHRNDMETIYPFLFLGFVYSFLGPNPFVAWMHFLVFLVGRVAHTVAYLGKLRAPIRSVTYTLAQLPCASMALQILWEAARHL
Test: Inhibition of purified mPGES-1 (1 to 152) (unknown origin) extracted from detergent-solubilized baculovirus-infected insect Sf9 cell membranes using PGH2 as substrate assessed as PGE2 production after 2.5 mins by LC/MS analysis
observed.property: IC50 (µM)

(a) Fc1cccc(Cl)c1-c1nc(-c2ccc(C#Cc3ccc(C(F)(F)F)cc3)nc2)c(Br)[nH]1
(b) CC(C)Oc1ccc(-n2c(C(=O)O)cc3cc(-c4ccc(C(C)(C)C)cc4)ccc32)cc1
Query string: Record comparison, field IC50: mark the lower of a and b . Answer by quoting the chosen item's label.
Result string: b
